molecular target: HIV-1 PR (Human immunodeficiency virus type 1 group M subtype B, UniProt P04585); experiment: HIV-protease inhibitory activity assay (FRET peptide substrate); conditions: Test Example 1
Entries and their IC50 values follow.

compound | IC50 / nM
COc1ccc(S(=O)(=O)N(CC(C)C)CC(O)C(Cc2ccc(NCc3cc(Oc4ccccn4)ccc3-c3sc4c(c3C(=O)O)CC(C)(C)CC4)cc2)NC(=O)OC2COC3(C)OCCC23)cc1 (stereo not drawn) [Compound I-685] | 2.98
COc1ccc(S(=O)(=O)N(CC(C)C)CC(O)C(Cc2ccc(OCc3ncccc3-c3sc4c(c3C(=O)O)CC(C)(C)CC4)cc2)NC(=O)OC2COC3(C)OCCC23)cc1 (stereo not drawn) [Compound I-88] | 0.86
COc1ccc(S(=O)(=O)N(CC(C)C)CC(O)C(Cc2ccc(OCc3ccccc3-c3sc(N(C4CCCCC4)C4CCCCC4)nc3C(=O)O)cc2)NC(=O)OC2COC3(C)OCCC23)cc1 (stereo not drawn) [Compound I-74] | 1.71

====

molecular target: HIV-1 PR (Human immunodeficiency virus type 1 group M subtype B, UniProt P04585); assay: HIV-protease inhibitory activity assay (FRET peptide substrate); assay type: biochemical; details: Test Example 1
pIC50: −log10 of the molar value.
Measured pIC50 accompanies every entry in the list below.

compound | pIC50
COc1ccc(S(=O)(=O)N(CC(C)C)CC(O)C(Cc2ccc(N(C)c3ccc(-c4sc5c(c4C(=O)O)CC(C)(C)CC5)cc3)cc2)NC(=O)OC2COC3(C)OCCC23)cc1 (stereo not drawn) [Compound I-469] | 8.29
COc1ccc(S(=O)(=O)N(CC(C)C)CC(O)C(Cc2ccc(Nc3cccc(-c4sc5c(c4C(=O)O)CC(C)(C)CC5)c3)cc2)NC(=O)OC2COC3(C)OCCC23)cc1 (stereo not drawn) [Compound I-478] | 8.65
COc1ccc(S(=O)(=O)N(CC(C)C)CC(O)C(Cc2ccc(NCc3c(F)cccc3C(=O)Nc3sc4c(c3C(=O)O)CC(C)(C)CC4)cc2)NC(=O)OC2COC3(C)OCCC23)cc1 (stereo not drawn) [Compound I-748] | 8.62
COc1ccc(S(=O)(=O)N(CC(C)C)CC(O)C(Cc2ccc(OCc3ccccc3-c3sc4c(c3-c3noc(=O)[nH]3)CC(C)(C)CC4)cc2)NC(=O)OC2COC3OCCC23)cc1 (stereo not drawn) [Compound I-815] | 8.79
COc1ccc(S(=O)(=O)N(CC(C)C)CC(O)C(Cc2ccc(N(C)Cc3cc(Cl)ccc3C(=O)Nc3sc4c(c3C(=O)O)CC(C)(C)CC4)cc2)NC(=O)OC2COC3(C)OCCC23)cc1 (stereo not drawn) [Compound I-658] | 7.86
COc1ccc(S(=O)(=O)N(CC(C)C)C[C@@H](O)[C@H](Cc2ccc(NCc3ccccc3C(=O)Nc3sc4c(c3C(=O)O)CC(C)(C)CC4)cc2)NC(=O)O[C@H]2CO[C@@]3(C)OCC[C@@H]23)cc1 [Compound I-396] | 8.56

====

target: HIV-1 PR (Human immunodeficiency virus type 1 group M subtype B, UniProt P04585); assay: HIV-protease inhibitory activity assay (FRET peptide substrate); assay type: biochemical; details: Test Example 1
pIC50: −log10 of the molar value.
metric_name: pIC50

compound | reading
COc1ccc(S(=O)(=O)N(CC(C)C)CC(O)C(Cc2ccc(NCc3ccc(F)cc3-c3sc4c(c3C(=O)O)CC(C)(C)CC4)cc2)NC(=O)OC2COC3(C)OCCC23)cc1 (stereo not drawn) | 8.68
COc1ccc(S(=O)(=O)N(CC(C)C)CC(O)C(Cc2ccc(NCc3ccc(C(F)(F)F)cc3-c3sc4c(c3C(=O)O)CC(C)(C)CC4)cc2)NC(=O)OC2COC3(C)OCCC23)cc1 (stereo not drawn) | 8.19
CCCCCCCCCN(Cc1ccccc1-c1sc2c(c1C(=O)O)CC(C)(C)CC2)c1ccc(CC(NC(=O)OC2COC3(C)OCCC23)C(O)CN(CC(C)C)S(=O)(=O)c2ccc(OC)cc2)cc1 (stereo not drawn) | 7.29
COc1ccc(S(=O)(=O)N(CC(C)C)CC(O)C(Cc2ccc(OCc3ccccc3-c3ccc4c(c3)C(=O)C(C3CCCCC3)C4=O)cc2)NC(=O)OC2COC3(C)OCCC23)cc1 (stereo not drawn) | 8.84
CCCCCCN(Cc1ccccc1-c1sc2c(c1C(=O)O)CC(C)(C)CC2)c1ccc(CC(NC(=O)OC2COC3(C)OCCC23)C(O)CN(CC(C)C)S(=O)(=O)c2ccc(OC)cc2)cc1 (stereo not drawn) | 7.80
COc1ccc(S(=O)(=O)N(CC(C)C)CC(O)C(Cc2ccc(NCc3cncc(-c4sc5c(c4C(=O)O)CC(C)(C)CC5)c3)cc2)NC(=O)OC2COC3(C)OCCC23)cc1 (stereo not drawn) | 8.78
COc1ccc(S(=O)(=O)N(CC(C)C)CC(O)C(Cc2ccc(NCc3cc(Cl)ccc3-c3sc4c(c3C(=O)O)CC(C)(C)CC4)cc2)NC(=O)OC2COC3(C)OCCC23)cc1 (stereo not drawn) | 8.64
CCCN(Cc1ccccc1-c1sc2c(c1C(=O)O)CC(C)(C)CC2)c1ccc(CC(NC(=O)OC2COC3(C)OCCC23)C(O)CN(CC(C)C)S(=O)(=O)c2ccc(OC)cc2)cc1 (stereo not drawn) | 8.48
CC1(C)CCc2sc(-c3ccc(C(F)(F)F)cc3CNc3ccc(CC(NC(=O)OC4COC5OCCC45)C(O)CN(CC4CCCC4)S(=O)(=O)c4ccc5ncsc5c4)cc3)c(C(=O)O)c2C1 (stereo not drawn) | 8.07
COc1ccc(S(=O)(=O)N(CC(C)C)CC(O)C(Cc2ccc(N3CCc4c(-c5sc6c(c5C(=O)O)CC(C)(C)CC6)cccc43)cc2)NC(=O)OC2COC3(C)OCCC23)cc1 (stereo not drawn) | 8.32
COc1ccc(S(=O)(=O)N(CC(C)C)C[C@@H](O)[C@H](Cc2ccc(NCc3sc4c(c3C(=O)O)CC(C)(C)CC4)cc2)NC(=O)O[C@H]2CO[C@@]3(C)OCC[C@@H]23)cc1 | 8.77
COc1ccc(S(=O)(=O)N(CC(C)C)CC(O)C(Cc2ccc(NCc3ccc4scc(C(=O)Nc5sc6c(c5C(=O)O)CC(C)(C)CC6)c4c3)cc2)NC(=O)OC2COC3(C)OCCC23)cc1 (stereo not drawn) | 8.35
